# SYSTEM UNDER TEST: Human PD-L1/PD-1 (Homo sapiens, UniProt Q9NZQ7)
# Construct: made in house; host or cells: HEK293T
# Sequence (Q9NZQ7 with tags, fused parts or gaps): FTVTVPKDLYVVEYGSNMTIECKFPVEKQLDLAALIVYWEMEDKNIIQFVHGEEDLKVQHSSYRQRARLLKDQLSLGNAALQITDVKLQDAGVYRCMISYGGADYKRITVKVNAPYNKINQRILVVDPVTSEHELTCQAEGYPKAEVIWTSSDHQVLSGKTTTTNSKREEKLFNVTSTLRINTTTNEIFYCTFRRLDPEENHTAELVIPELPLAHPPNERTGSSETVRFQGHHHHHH
# ASSAY TEXT: HTRF PD-1-Ig/PD-L1-His binding assay (human PD-L1)
# CONDITION SET: cluster symbol; read-out: HTRF IC50 cluster
# Text: The ability of the macrocyclic peptides of the present disclosure to bind to PD-L1 was investigated using a PD-1/PD-L1 Homogenous Time-Resolved Fluorescence (HTRF) binding assay. Homogenous Time-Resolved Fluorescence (HTRF) Assays of Binding of Soluble PD-1 to Soluble PD-L1. […]
Positions of bridges follow the written chain, without caps; N, C: chain ends. Non-standard residues stand in square brackets, D forms with d. Residues, ends and D or L forms follow the SMILES beside them. NMeW = CN[C@@H](Cc1c[nH]c2ccccc12)C(=O)O; NMeNle = CCCC[C@H](NC)C(=O)O; NMeA = CN[C@@H](C)C(=O)O; Sar = CNCC(=O)O
READOUT KIND: IC50

// query Entry under review: CCCC[C@H]1C(=O)N[C@@H](CCCNC(=N)N)C(=O)N[C@H](C(=O)NCC(N)=O)CSCC(=O)N[C@@H](Cc2ccccc2)C(=O)N(C)[C@@H](C)C(=O)N[C@@H](CC(N)=O)C(=O)N2CCC[C@H]2C(=O)N[C@@H](Cc2cnc[nH]2)C(=O)N[C@@H](CC(C)C)C(=O)N(C)CC(=O)N[C@@H](Cc2c[nH]c3ccccc23)C(=O)N[C@@H](CO)C(=O)N(C)[C@@H](Cc2c[nH]c3ccccc23)C(=O)N(C)[C@@H](CCCC)C(=O)N1C [Example 1031] ({CH2CO}-F[NMeA]NPHL[Sar]WS[NMeW][NMeNle][NMeNle]RCG-NH2; thioether N-14) . Reported IC50?
// result > 30.5 nM

###

Please go through the items and note down their IC50.
# SYSTEM UNDER TEST: LK35.2-hPD-L1 cells / PE-labeled PD-1-Ig (Homo sapiens)
# Construct: expressed in transfected cells; host or cells: LK35.2 mouse B cell line
# Sequence (Q9NZQ7 19-290): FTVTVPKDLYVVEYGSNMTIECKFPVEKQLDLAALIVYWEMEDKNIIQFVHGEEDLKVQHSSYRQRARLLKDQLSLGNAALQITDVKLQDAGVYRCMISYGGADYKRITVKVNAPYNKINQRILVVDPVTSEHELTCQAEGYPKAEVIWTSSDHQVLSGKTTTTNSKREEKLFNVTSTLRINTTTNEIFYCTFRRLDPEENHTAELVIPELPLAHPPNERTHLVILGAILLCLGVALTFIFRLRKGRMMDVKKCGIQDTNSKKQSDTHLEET
# ASSAY TEXT: LK35.2-hPD-L1 cell binding high-content screening assay
# Assay type: cell-based
# CONDITION SET: cell binding assay, cell line not given; cluster symbol; read-out: CBA IC50 cluster
# Experimental: LK35.2-hPD-L1 Cell Binding High-Content Screening Assay. Phycoerythrin (PE) was covalently linked to the Ig epitope tag of human PD-1-Ig and fluorescently-labeled PD-1-Ig was used for binding studies with a mouse B cell line (LK35.2) stably over-expressing human PD-L1 (LK35.2-hPD-L1). Briefly, 3×10^3 LK35.2-hPD-L1 cells were seeded into 384 well plates in 20 ul of RPMI supplemented with 10% fetal calf serum and cultured overnight. […]
Positions of bridges follow the written chain, without caps; N, C: chain ends. Non-standard residues stand in square brackets, D forms with d. Residues, ends and D or L forms follow the SMILES beside them. *: point of attachment. Ala(benzothiazol-2-yl) = N[C@@H](Cc1nc2ccccc2s1)C(=O)O; Hyp = O=C(O)[C@@H]1C[C@@H](O)CN1; NMeF = CN[C@@H](Cc1ccccc1)C(=O)O; NMeNle = CCCC[C@H](NC)C(=O)O; NMeS = CN[C@@H](CO)C(=O)O; NMeA = CN[C@@H](C)C(=O)O; Bn = c1ccc(C*)cc1; Sar = CNCC(=O)O

For orientation, consider the following solved cases.
[[record]]
molecule = "CCCC[C@H]1C(=O)N(C)CC(=O)N[C@@H](CC(=O)O)C(=O)N[C@@H](C(C)C)C(=O)N(C)[C@@H](Cc2ccccc2)C(=O)N[C@@H](Cc2ccc(O)cc2)C(=O)N(C)CC(=O)N[C@@H](Cc2nc3ccccc3s2)C(=O)N[C@@H](Cc2ccc(O)cc2)C(=O)N[C@@H](CC(C)C)C(=O)N[C@H](C(=O)NCC(N)=O)CSCC(=O)N[C@@H](Cc2ccccc2)C(=O)N(C)[C@@H](Cc2ccccc2)C(=O)N1C [Example 3557] ({CH2CO}-F[NMeF][NMeNle][Sar]DV[NMeF]Y[Sar][Ala(benzothiazol-2-yl)]YLCG-NH2; thioether N-13)"
system_under_test = "LK35.2-hPD-L1 cells / PE-labeled PD-1-Ig (Homo sapiens)"
assay_result = "> 74.3 nM"

[[record]]
molecule = "CCCC[C@H]1C(=O)N(C)[C@@H](CCCC)C(=O)N[C@@H](CCCNC(=N)N)C(=O)N[C@H](C(=O)NCC(N)=O)CSCC(=O)N[C@@H](Cc2ccc(OC)cc2)C(=O)N(C)[C@@H](C)C(=O)N[C@@H](CC(N)=O)C(=O)N2CCC[C@H]2C(=O)N[C@@H](Cc2cnc[nH]2)C(=O)N[C@@H](CC(C)C)C(=O)N2C[C@H](O)C[C@H]2C(=O)N[C@@H](Cc2c[nH]c3ccccc23)C(=O)N[C@@H](CO)C(=O)N[C@@H](Cc2c[nH]c3ccccc23)C(=O)N1C"
system_under_test = "LK35.2-hPD-L1 cells / PE-labeled PD-1-Ig (Homo sapiens)"
assay_result = "0.158 to 4.71 nM"

[[record]]
molecule = "CCCC[C@H]1C(=O)N(C)[C@@H](CCCC)C(=O)N[C@@H](CCCCN)C(=O)N[C@H](C(=O)NCC(N)=O)CSCC(=O)N[C@@H](Cc2ccc(O)cc2)C(=O)N(C)[C@@H](C)C(=O)N[C@@H](CC(=O)O)C(=O)N2CCC[C@H]2C(=O)N[C@@H](Cc2c[nH]cn2)C(=O)N[C@@H](CCC(N)=O)C(=O)N2C[C@H](O)C[C@H]2C(=O)N[C@@H](Cc2c[nH]c3ccccc23)C(=O)N[C@@H](CO)C(=O)N[C@@H](Cc2c[nH]c3ccccc23)C(=O)N1C [Example 5120] ({CH2CO}-Y[NMeA]DPHQ[Hyp]WSW[NMeNle][NMeNle]KCG-NH2; thioether N-14)"
system_under_test = "LK35.2-hPD-L1 cells / PE-labeled PD-1-Ig (Homo sapiens)"
assay_result = "0.158 to 4.71 nM"


Consider now this further molecule.
// query Form: Entry = CCCC[C@H]1C(=O)N(C)[C@@H](COCc2ccccc2)C(=O)N[C@@H](CCCNC(=N)N)C(=O)N[C@H](C(=O)NCC(N)=O)CSCC(=O)N[C@@H](Cc2ccccc2)C(=O)N(C)[C@@H](C)C(=O)N[C@@H](CC(N)=O)C(=O)N2CCC[C@H]2C(=O)N[C@@H](Cc2cnc[nH]2)C(=O)N[C@@H](CC(C)C)C(=O)N(C)CC(=O)N[C@@H](Cc2c[nH]c3ccccc23)C(=O)N[C@@H](CO)C(=O)N[C@@H](Cc2c[nH]c3ccccc23)C(=O)N1C [Example 6016] ({CH2CO}-F[NMeA]NPHL[Sar]WSW[NMeNle][NMeS](Bn)RCG-NH2; thioether N-14) | System = LK35.2-hPD-L1 cells / PE-labeled PD-1-Ig (Homo sapiens) | IC50 = ____
// result 4.78 to 72.9 nM
